Biological target: Waterhemp (Amaranthus tuberculata) protoporphyrinogen oxidase (PPO), wild type
Experiment: PPO enzyme assay (plastid extract)
Settings: 3 μM protogen; pH 7.4, 30° C.; read-out: S-3100 IC50
VALUE TYPE: IC50

Request: Suppose we examine the compound CCOC(=O)COc1ncccc1Oc1cc(-n2c(=O)cc(C(F)(F)F)n(C)c2=O)c(F)cc1Cl [S-3100] ; what IC50 value has been reported?
Result: 9 nM

From: patent US12123009B2
